assayed-system: MAO-A of the brain of a rat (Rattus norvegicus, UniProt P21396)
Sequence (P21396 1-526): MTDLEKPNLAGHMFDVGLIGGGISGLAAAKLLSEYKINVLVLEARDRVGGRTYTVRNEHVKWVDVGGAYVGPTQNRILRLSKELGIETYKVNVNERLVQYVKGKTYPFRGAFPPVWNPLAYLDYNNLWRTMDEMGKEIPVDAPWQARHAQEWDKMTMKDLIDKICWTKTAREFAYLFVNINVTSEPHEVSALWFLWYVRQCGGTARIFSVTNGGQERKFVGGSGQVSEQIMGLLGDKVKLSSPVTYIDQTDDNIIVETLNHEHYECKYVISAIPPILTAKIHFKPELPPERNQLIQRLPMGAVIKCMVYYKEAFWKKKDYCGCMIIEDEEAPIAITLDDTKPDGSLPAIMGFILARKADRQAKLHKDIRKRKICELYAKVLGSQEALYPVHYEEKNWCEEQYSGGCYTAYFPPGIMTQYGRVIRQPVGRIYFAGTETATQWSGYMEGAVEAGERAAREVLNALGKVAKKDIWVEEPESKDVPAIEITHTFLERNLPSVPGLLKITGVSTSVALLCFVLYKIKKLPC
# IC50 annotations
attribute-measured: IC50 (µM)

>>> meas_value("CN[C@@H](C)[C@H]1CN(c2ccc(OCc3cccc(Cl)c3)cc2)C(=O)O1 (relative stereo) [compound 340745]")
15
>>> meas_value("COc1cccc(COc2ccc(N3C[C@H]([C@H](C)N(C)C)OC3=O)cc2)c1 (relative stereo)")
1000
>>> meas_value("CN[C@@H](C)[C@H]1CN(c2ccc(OCc3cccc(Cl)c3)cc2)C(=O)O1 [compound 340271]")
7.43
>>> meas_value("C[C@H]([C@H]1CN(c2ccc(OCc3cccc(Cl)c3)cc2)C(=O)O1)N(C)C (relative stereo)")
300
>>> meas_value("CN[C@H](C)[C@@H]1CN(c2ccc(OCc3cccc(Cl)c3)cc2)C(=O)O1")
18.3

====

assayed-system: MAO-B of the brain of a rat (Rattus norvegicus, UniProt P19643)
Construct: total rat brain homogenate, with 1 g of tissue/16 ml of phosphate buffer; from tissue; host or cells: rat brain, total homogenate
Sequence (P19643 whole entry): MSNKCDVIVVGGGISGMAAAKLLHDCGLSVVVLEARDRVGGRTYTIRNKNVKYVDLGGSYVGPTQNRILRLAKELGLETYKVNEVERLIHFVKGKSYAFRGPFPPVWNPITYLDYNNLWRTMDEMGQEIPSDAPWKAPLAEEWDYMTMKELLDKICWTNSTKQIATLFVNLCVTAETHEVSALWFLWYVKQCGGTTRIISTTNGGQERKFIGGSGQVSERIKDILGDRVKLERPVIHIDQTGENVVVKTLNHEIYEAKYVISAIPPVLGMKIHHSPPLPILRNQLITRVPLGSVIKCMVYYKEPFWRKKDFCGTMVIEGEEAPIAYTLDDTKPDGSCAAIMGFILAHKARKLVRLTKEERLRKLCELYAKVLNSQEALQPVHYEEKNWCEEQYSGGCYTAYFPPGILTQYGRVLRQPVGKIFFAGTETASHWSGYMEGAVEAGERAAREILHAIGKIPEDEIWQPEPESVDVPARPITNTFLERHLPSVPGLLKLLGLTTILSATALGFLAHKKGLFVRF
assay-notes: in vitro inhibition of MAO-B, total rat brain homogenate
Assay type: biochemical
test-parameters: preincubation of 60'; selectivity MAO-B over MAO-A; 60 min
attribute-measured: ratio IC 50 (A) / IC 50 (B) (head is drawing 22)

>>> meas_value("C[C@H](N)[C@H]1CN(c2ccc(OCc3cccc(Cl)c3)cc2)C(=O)O1 (relative stereo)")
553
>>> meas_value("CN[C@H](C)[C@@H]1CN(c2ccc(OCc3cccc(Cl)c3)cc2)C(=O)O1")
16

====

Listed next: entries and their corresponding ratio IC 50 (A) / IC 50 (B) (head is drawing 22).
assayed-system: MAO-B of the brain of a rat (Rattus norvegicus)
Construct: total rat brain homogenate, with 1 g of tissue/16 ml of phosphate buffer; from tissue; host or cells: rat brain, total homogenate
assay-notes: in vitro inhibition of MAO-B, total rat brain homogenate
Format: biochemical
test-parameters: preincubation of 60'; selectivity MAO-B over MAO-A; 60 min
attribute-measured: ratio IC 50 (A) / IC 50 (B) (head is drawing 22)

>>> meas_value("CN[C@H](C)[C@H]1CN(c2ccc(OCc3cccc(Cl)c3)cc2)C(=O)O1")
110
>>> meas_value("COc1cccc(COc2ccc(N3C[C@H]([C@H](C)N(C)C)OC3=O)cc2)c1 (relative stereo) [compound 340743]")
2500
>>> meas_value("CN[C@@H](C)[C@H]1CN(c2ccc(OCc3cccc(Cl)c3)cc2)C(=O)O1 (relative stereo) [compound 340745]")
300

====

Parameter: IC50. Scope: all listed entries.
assayed-system: MAO-A of the brain of a rat (Rattus norvegicus)
Sequence (P21396 1-526): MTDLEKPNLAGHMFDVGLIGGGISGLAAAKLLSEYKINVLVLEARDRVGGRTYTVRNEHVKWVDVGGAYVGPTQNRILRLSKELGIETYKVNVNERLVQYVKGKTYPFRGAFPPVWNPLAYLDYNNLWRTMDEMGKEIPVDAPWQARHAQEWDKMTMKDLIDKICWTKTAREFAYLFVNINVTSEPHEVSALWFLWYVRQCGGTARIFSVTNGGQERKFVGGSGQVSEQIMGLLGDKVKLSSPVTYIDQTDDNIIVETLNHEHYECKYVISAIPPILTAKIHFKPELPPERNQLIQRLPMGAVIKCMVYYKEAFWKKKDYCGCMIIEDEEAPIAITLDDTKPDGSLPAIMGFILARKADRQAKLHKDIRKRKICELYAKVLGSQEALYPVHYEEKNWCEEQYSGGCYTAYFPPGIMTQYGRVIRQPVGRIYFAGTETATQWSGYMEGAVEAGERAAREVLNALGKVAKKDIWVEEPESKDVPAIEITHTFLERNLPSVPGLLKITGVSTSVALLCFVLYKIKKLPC
attribute-measured: IC50

>>> meas_value("COc1cccc(COc2ccc(N3C[C@H]([C@@H](C)N(C)C)OC3=O)cc2)c1 (relative stereo)")
"> 30 µM"
>>> meas_value("C[C@@H](N)[C@H]1CN(c2ccc(OCc3cccc(Cl)c3)cc2)C(=O)O1")
"> 100 µM"
>>> meas_value("COc1cccc(COc2ccc(N3C[C@@H]([C@@H](C)N(C)C)OC3=O)cc2)c1")
"> 1000 µM"
>>> meas_value("C[C@H](N)[C@@H]1CN(c2ccc(OCc3cccc(Cl)c3)cc2)C(=O)O1")
"> 100 µM"
>>> meas_value("C[C@H]([C@@H]1CN(c2ccc(OCc3cccc(Cl)c3)cc2)C(=O)O1)N(C)C")
"> 1000 µM"

====

assayed-system: MAO-B of the brain of a rat (Rattus norvegicus)
Construct: total rat brain homogenate, with 1 g of tissue/16 ml of phosphate buffer; from tissue; host or cells: rat brain, total homogenate
assay-notes: in vitro inhibition of MAO-B, total rat brain homogenate
Format: biochemical
test-parameters: preincubation of 60'; selectivity MAO-B over MAO-A; 60 min
attribute-measured: ratio IC 50 (A) / IC 50 (B) (head is drawing 22)

>>> meas_value("C[C@@H](N)[C@H]1CN(c2ccc(OCc3cccc(Cl)c3)cc2)C(=O)O1")
"> 19"
>>> meas_value("C[C@H](N)[C@@H]1CN(c2ccc(OCc3cccc(Cl)c3)cc2)C(=O)O1")
"> 61"
>>> meas_value("COc1cccc(COc2ccc(N3C[C@@H]([C@@H](C)N(C)C)OC3=O)cc2)c1")
"> 67"
